B1: mRNA-splicing (parent)
chain: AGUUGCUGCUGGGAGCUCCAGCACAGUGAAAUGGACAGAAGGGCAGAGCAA

Variants of: B1
Experiment: exon inclusion enrichment index; higher = more inclusion; WT1 exon 5 minigene, HEK293
exon inclusion enrichment index values, listed per item

primary sequence: AGUUGACGACGGGAGCUCCAGCACAGUGAAAUGGACAGAAGGGCAUAGCAA
exon inclusion enrichment index: 2.22
--
primary sequence: AGUUAUAUAUGGGAGCUCCAGCACACUGAAAUGGACAGAAGGGCAGAGCAA
exon inclusion enrichment index: 0.142
--
primary sequence: AGUUGAAGAAGGGAGCUCCAGCACAGUGAAAUGGACAGACUGGCAGAGCAA
exon inclusion enrichment index: 0.431
--
primary sequence: AGUUGAAGAGUGGAGCUCCAGCACAGUGAAAUGGACAGAAGGGCAGAGCAA
exon inclusion enrichment index: 1.14
--
primary sequence: AGCAGACGACGGGAGCUCCAGCACAGUGAAAUGGACAGAAGGGCAGAGCAA
exon inclusion enrichment index: 2.21

Q: Report measured exon inclusion enrichment index; entry is AGUUUCCACAGGGAGCUCCAGCACAGUGAAAUGGACAGAAGGGCAGAGCAA
Result: 0.168

Q: Report measured exon inclusion enrichment index; entry is AGUUCGCGCCGGGAGCUCCAGCACAGAUAAAUGGACAGAAGGGCAGAGCAA
Result: 1.9

Q: Report measured exon inclusion enrichment index; entry is AGUUUCUUUUGGGAGCUCCAGCACAGUGAAAUGGACAGAAGGGUGGAGCAA
Result: 0.043

Q: Report measured exon inclusion enrichment index; entry is AGUUCGCGCCGGGAGCUCCAGCACAGUGAAAUGGACAGAGGGGCAGAGCAA
Result: 3.16

Q: Report measured exon inclusion enrichment index; entry is AGUUGAAGACCGGAGCUCCAGCACAGUGAAAUGGACAGAAGGGCAGAGCAA
Result: 4.28

Q: Report measured exon inclusion enrichment index; entry is AGUUAUAUAUGGGAGCUCCAGCACAGUGAAAUGGACAGAAAGGCAGAGCAA
Result: 0.0374
